Target: inositol monophosphatase (IMPase) (Xenopus laevis)
Construct: The thirty embryos were then lysed in 300 μl of IMPB; endogenous in cells; host or cells: Xenopus embryos (32-cell stage lysate supernatant; 8- to 16-cell stage embryos injected in vivo)
Sequence (P29219 whole entry): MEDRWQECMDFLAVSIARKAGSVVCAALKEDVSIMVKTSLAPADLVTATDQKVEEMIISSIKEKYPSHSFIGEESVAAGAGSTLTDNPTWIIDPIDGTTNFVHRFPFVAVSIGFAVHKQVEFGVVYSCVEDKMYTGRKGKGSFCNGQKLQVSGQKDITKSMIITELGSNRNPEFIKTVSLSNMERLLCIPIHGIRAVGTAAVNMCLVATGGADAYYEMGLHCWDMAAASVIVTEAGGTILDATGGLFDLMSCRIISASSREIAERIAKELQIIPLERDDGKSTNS
Experiment: IMPase activity in lysates prepared from Xenopus embryos
Type: biochemical
Details: read-out: concentration of L-690,330 giving approximately 50% inhibition of IMPase activity; FIG. 1 Panel A legend
pIC50: −log10 of the molar value.

- Compound: "CC(Oc1ccc(O)cc1)(P(=O)(O)O)P(=O)(O)O [L-690,330]"
  pIC50: "~3.00"

* * *

Biological target: inositol monophosphatase (IMPase) (Xenopus laevis)
Construct: The thirty embryos were then lysed in 300 μl of IMPB; endogenous in cells; host or cells: Xenopus embryos (32-cell stage lysate supernatant; 8- to 16-cell stage embryos injected in vivo)
Test: IMPase activity in lysates prepared from Xenopus embryos
Format: biochemical
Conditions: read-out: concentration giving 50% inhibition of in vitro IMPase activity; lysates prepared from Xenopus embryos
pIC50: −log10 of the molar value.

- Smiles Str: "CC(Oc1ccc(O)cc1)(P(=O)(O)O)P(=O)(O)O"
  pIC50: "~6.00"

* * *

Target: UniProt:G1T8E2
Sequence (G1T8E2 1-432): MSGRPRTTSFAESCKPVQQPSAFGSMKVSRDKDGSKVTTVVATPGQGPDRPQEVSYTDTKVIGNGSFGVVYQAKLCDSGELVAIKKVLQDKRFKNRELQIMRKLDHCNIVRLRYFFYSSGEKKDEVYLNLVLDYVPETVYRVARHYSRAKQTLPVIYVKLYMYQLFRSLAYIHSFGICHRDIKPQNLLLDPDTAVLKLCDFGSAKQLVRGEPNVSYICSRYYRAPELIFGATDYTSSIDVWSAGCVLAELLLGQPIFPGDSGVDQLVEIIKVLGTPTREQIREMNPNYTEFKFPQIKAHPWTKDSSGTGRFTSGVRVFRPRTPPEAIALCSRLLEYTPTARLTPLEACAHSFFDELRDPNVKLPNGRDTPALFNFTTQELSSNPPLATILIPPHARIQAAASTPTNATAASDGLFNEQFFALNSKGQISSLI

- Smiles Str: "Cn1cc(C2=C(c3cn(CCCSC(=N)N)c4ccccc34)C(=O)NC2=O)c2ccccc21"
  IC50: "~40 nM"
